Tested on: HOP-62 NSCLC
test-summary: NCI-60 one-dose screen, 48 h (100 = growth as untreated, 0 = no growth, -100 = all killed)
details: 10 µM
About 83,000 compounds went through this panel and 20% of them were active in at least one assay; those are over-represented in the sample as a whole.
In this section, each of the compounds is paired with its reported growth.
quantity-measured: growth (%)

- O=C(O)CCCCSCCCCC(=O)O: 95.8
- O=C(Nc1ccc(CN2CCOCC2)cc1)c1ccc(-c2cc(Cl)ccc2Cl)o1: 71.4
- COc1ccc(Nc2ccnc(N3CCN(c4ccnc5cc(Cl)ccc45)CC3)n2)cc1: 16.5
- Nc1c(C(=O)Nc2ccccc2F)sc2nc3c(cc12)C(=O)CCC3: 42.7
- COc1ccc(-c2cc(/C=C3\C(=O)Nc4cc(Cl)ccc43)[nH]n2)cc1: 45.4
- O=C(Nc1ccc(OCc2nnc(-c3ccccc3)o2)c(F)c1)Nc1ccc(Cl)c(Cl)c1: 76.6
- COc1ccccc1S(=O)(=O)Nc1ccc2c(c1)CN(C)C(=O)N2: 44.3
- Nc1ccc(Sc2ccc3c4c2cccc4c(=O)n2c4ccccc4nc32)cc1: 51.2
- Fc1ccc(Nc2ccnc(N3CCN(c4ccnc5cc(Cl)ccc45)CC3)n2)cc1: 62.8

Where these numbers come from: PubChem BioAssay (NCI)
